# credit: patent US20210246166A1

Molecular target: T1, recombinant human MASP1 active protease (amino acids 297-699, C-terminal His Tag) (human, UniProt P48740 297-699)
T1 sequence: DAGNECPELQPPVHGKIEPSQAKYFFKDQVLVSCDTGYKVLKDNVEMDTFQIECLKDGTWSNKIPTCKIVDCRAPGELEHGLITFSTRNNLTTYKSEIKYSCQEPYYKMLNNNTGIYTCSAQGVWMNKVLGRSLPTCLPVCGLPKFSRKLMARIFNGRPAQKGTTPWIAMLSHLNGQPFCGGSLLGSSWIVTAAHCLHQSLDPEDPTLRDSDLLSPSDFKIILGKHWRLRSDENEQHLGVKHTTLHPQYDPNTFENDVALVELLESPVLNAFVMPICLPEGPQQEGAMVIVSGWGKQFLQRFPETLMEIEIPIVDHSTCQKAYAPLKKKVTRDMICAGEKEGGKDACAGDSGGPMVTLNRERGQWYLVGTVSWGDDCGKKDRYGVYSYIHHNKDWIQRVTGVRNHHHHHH
Test: cell-based or functional assay
Bridge positions count the residues as written; N and C are the ends. Square brackets hold non-standard residues; d marks the D form. Ends that are not written are not given here. Oic = O=C(O)[C@@H]1C[C@@H]2CCCC[C@@H]2N1; tBuAla = CC(C)(C)C[C@H](N)C(=O)O; PEG4 = NCCOCCOCCOCCOCCC(=O)O; Pen = CC(C)(S)[C@H](N)C(=O)O; NMeC = CN[C@@H](CS)C(=O)O; Sar = CNCC(=O)O

{"columns": ["Binder", "human MASP1 IC50 / nM"],
 "data": [
  ["AICSRS[tBuAla]PPI[NMeC]IPD-NH2 (disulfide 3-11; also: HCl salt) [AIC+SRS-((tBu)A)-PPI-((N-Me)C)+IPD-NH2 (HCl salt)]", 1.53],
  ["[Sar]ICSRSLP[Oic]I[Pen]IP[PEG4]-NH2 (disulfide 3-11; N-terminus assumed; SMILES CC[C@H](C)[C@H](NC(=O)CNC)C(=O)N[C@H]1CSSC(C)(C)[C@@H](C(=O)N[C@H](C(=O)N2CCC[C@H]2C(=O)NCCOCCOCCOCCOCCC(N)=O)[C@@H](C)CC)NC(=O)[C@H]([C@@H](C)CC)NC(=O)[C@@H]2C[C@@H]3CCCC[C@@H]3N2C(=O)[C@@H]2CCCN2C(=O)[C@H](CC(C)C)NC(=O)[C@H](CO)NC(=O)[C@H](CCCNC(=N)N)NC(=O)[C@H](CO)NC1=O) [((N-Me)G)-IC+SRSLP-(Oic)-I-(Pen)+IP-(PEG3(16 atoms))-NH2]", 3.2],
  ["AICSRSLP[Oic]I[Pen]I-OH (disulfide 3-11; N-terminus assumed; SMILES CC[C@H](C)[C@H](NC(=O)[C@H]1NC(=O)[C@H]([C@@H](C)CC)NC(=O)[C@@H]2C[C@@H]3CCCC[C@@H]3N2C(=O)[C@@H]2CCCN2C(=O)[C@H](CC(C)C)NC(=O)[C@H](CO)NC(=O)[C@H](CCCNC(=N)N)NC(=O)[C@H](CO)NC(=O)[C@@H](NC(=O)[C@@H](NC(=O)[C@H](C)N)[C@@H](C)CC)CSSC1(C)C)C(=O)O) [AIC+SRSLP-(Oic)-I-(Pen)+I-OH]", 3],
  ["RICSRS[tBuAla]PPI[NMeC]IPD-NH2 (disulfide 3-11; N-terminus assumed; SMILES CC[C@H](C)[C@H](NC(=O)[C@@H](N)CCCNC(=N)N)C(=O)N[C@H]1CSSC[C@@H](C(=O)N[C@H](C(=O)N2CCC[C@H]2C(=O)N[C@@H](CC(=O)O)C(N)=O)[C@@H](C)CC)N(C)C(=O)[C@H]([C@@H](C)CC)NC(=O)[C@@H]2CCCN2C(=O)[C@@H]2CCCN2C(=O)[C@H](CC(C)(C)C)NC(=O)[C@H](CO)NC(=O)[C@H](CCCNC(=N)N)NC(=O)[C@H](CO)NC1=O) [RIC+SRS-((tBu)A)-PPI-((N-Me)C)+IPD-NH2]", 1.36],
  ["[Sar]ICSRS[tBuAla]PPI[Pen]IP[Sar][Sar][Sar]-NH2 (disulfide 3-11; N-terminus assumed; SMILES CC[C@H](C)[C@H](NC(=O)CNC)C(=O)N[C@H]1CSSC(C)(C)[C@@H](C(=O)N[C@H](C(=O)N2CCC[C@H]2C(=O)N(C)CC(=O)N(C)CC(=O)N(C)CC(N)=O)[C@@H](C)CC)NC(=O)[C@H]([C@@H](C)CC)NC(=O)[C@@H]2CCCN2C(=O)[C@@H]2CCCN2C(=O)[C@H](CC(C)(C)C)NC(=O)[C@H](CO)NC(=O)[C@H](CCCNC(=N)N)NC(=O)[C@H](CO)NC1=O) [((N-Me)G)-IC+SRS-((tBu)A)-PPI-(Pen)+IP-((N-Me)G)-((N-Me)G)-((N-Me)G)-NH2]", 2]
]}
